target: Fatty acid synthase (Homo sapiens) (UniProt P49327); experiment: inhibition of FAS-TE enzyme activity – biochemical, endpoint fluorescence, OMFH substrate, round 2, powder samples, SAR follow-up (AID 652287); details: recombinant FAS-TE, OMFH fluorogenic substrate;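 active = compounds with IC50 of 20 µM or lower; inactive = the rest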
Sequence (P49327 whole entry, looked up): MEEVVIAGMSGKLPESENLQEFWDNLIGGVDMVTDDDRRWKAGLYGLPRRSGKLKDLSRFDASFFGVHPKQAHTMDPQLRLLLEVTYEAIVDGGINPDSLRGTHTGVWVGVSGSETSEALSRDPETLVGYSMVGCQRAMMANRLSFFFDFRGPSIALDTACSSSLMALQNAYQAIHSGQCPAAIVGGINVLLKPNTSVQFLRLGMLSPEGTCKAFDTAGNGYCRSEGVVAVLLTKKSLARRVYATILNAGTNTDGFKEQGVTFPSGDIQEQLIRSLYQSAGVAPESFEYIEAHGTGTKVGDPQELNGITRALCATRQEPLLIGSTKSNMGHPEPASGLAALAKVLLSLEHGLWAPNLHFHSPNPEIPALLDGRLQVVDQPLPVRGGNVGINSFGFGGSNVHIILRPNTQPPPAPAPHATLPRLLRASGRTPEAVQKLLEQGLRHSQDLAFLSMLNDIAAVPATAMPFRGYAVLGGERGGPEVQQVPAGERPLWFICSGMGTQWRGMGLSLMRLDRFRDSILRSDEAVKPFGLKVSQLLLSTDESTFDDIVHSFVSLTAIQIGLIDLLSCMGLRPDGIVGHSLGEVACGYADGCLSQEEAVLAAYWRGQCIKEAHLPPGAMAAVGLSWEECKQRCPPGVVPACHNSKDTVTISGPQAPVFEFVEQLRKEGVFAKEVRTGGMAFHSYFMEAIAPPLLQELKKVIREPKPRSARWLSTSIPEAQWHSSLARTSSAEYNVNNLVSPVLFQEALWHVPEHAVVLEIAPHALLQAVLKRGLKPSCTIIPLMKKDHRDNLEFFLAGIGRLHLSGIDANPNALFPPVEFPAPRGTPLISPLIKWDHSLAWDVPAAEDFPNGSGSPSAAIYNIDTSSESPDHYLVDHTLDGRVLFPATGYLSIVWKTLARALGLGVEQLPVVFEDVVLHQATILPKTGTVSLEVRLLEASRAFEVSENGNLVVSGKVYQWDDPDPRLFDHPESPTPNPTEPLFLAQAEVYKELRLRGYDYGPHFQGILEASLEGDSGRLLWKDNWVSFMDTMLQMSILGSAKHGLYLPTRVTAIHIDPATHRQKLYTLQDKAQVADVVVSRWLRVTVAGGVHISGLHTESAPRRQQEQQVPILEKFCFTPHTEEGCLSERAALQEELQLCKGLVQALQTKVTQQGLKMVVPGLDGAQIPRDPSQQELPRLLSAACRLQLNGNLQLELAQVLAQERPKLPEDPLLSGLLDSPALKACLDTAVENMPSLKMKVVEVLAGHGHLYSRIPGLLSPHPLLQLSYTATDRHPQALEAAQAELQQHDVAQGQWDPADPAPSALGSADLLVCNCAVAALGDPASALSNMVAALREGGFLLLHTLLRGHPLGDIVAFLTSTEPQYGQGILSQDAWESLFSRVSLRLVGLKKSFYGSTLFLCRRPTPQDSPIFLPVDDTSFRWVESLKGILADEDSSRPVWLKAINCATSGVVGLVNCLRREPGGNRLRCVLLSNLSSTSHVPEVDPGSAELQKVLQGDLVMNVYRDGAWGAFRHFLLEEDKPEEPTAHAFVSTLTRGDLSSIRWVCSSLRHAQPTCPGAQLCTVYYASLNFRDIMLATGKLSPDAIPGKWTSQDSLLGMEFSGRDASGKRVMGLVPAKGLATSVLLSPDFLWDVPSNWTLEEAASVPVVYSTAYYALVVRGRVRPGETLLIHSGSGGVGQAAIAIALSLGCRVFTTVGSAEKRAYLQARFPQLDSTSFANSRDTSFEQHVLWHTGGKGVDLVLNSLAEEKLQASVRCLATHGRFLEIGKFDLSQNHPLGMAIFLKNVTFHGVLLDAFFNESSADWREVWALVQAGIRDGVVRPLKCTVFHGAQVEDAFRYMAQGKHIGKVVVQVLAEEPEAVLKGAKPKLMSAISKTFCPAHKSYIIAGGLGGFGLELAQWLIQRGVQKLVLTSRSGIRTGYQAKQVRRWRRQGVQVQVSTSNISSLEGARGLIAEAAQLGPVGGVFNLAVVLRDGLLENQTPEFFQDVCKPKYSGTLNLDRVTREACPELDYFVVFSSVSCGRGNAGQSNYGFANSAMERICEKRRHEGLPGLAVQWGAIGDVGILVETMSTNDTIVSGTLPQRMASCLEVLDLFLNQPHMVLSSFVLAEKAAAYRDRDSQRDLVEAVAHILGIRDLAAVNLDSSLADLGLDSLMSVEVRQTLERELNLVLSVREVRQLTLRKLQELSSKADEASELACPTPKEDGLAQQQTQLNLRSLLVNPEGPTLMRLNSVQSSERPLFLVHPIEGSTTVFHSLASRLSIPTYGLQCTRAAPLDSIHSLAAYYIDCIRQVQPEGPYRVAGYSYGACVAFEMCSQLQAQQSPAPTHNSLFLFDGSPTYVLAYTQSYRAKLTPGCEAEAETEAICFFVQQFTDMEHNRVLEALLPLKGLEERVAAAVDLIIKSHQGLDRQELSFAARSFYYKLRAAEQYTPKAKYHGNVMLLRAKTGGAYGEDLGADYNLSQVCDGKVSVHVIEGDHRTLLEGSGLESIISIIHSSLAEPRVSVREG
Tick one outcome: class 1 = active, class 0 = inactive

# example entries with known answers
# COMPOUND, LABEL CLASS
measured = [
    ("CCCCCCCCCCC[C@H](C[C@@H]1OC(=O)[C@H]1CCCCCC)OC(=O)[C@@H](NC=O)C(C)C", "class 1"),
    ("CCCCC(=O)Nc1nc(-c2ccc(S(=O)(=O)N3CCOCC3)cc2)cs1", "class 1"),
    ("CCCCCC(=O)Nc1nc(-c2ccc(S(=O)(=O)N(CC)CC)cc2)cs1", "class 1"),
    ("CCC(C)C(=O)Nc1nc(-c2ccc(S(=O)(=O)N3CCCC3)cc2)cs1 (configuration not stated)", "class 1"),
    ("CCCCCC(=O)Nc1nc(-c2ccc(S(=O)(=O)N3CCC(C)CC3)cc2)cs1", "class 1"),
]

Prompt: Outcome logged for CCC(C)C(=O)Nc1nc(-c2ccc(S(=O)(=O)N3CCCCC3C)cc2)cs1 (configuration not stated) in this assay:
Response: class 1

Prompt: Outcome logged for `CCC(CC)C(=O)Nc1nc(-c2ccc(S(=O)(=O)N(CC)CC)cc2)cs1` in this assay:
Response: class 1

Prompt: Outcome logged for CCCCCC(=O)Nc1nc(-c2ccc(S(=O)(=O)N3CCCCC3C)cc2)cs1 (configuration not stated) in this assay:
Response: class 1

Prompt: Outcome logged for `CCC(CC)C(=O)Nc1nc(-c2ccc(S(=O)(=O)N3CCCC3)cc2)cs1` in this assay:
Response: class 1
